tested on: HT29 colon; assay: NCI-60 one-dose screen, 48 h (100 = growth as untreated, 0 = no growth, -100 = all killed); settings: 10 µM unless noted
The panel holds about 83,000 compounds, 20% with a hit somewhere; the sample as a whole holds those more often.
Give growth for every item shown.
Answers are plain numbers, in %.

Take a look at these entries with their results.
TEST_SMILES	UOM	growth
COc1cc(/C(C#N)=C/c2ccc3c(c2OC)OCO3)cc2c1OCO2	%	0.067
COc1ccc(NC(=O)c2c(Nc3ccc(OC)cc3OC)n[nH]c2N)c(OC)c1	%	102
COc1ccc(-c2ccc(C)n2-c2ccc(-c3nc4ccccc4s3)cc2)cc1	%	92
Cc1ccc(S(=O)(=O)NCCNc2nccc(-c3c(-c4cccc(N)c4)nc4sccn34)n2)cc1	%	91.7

Turning now to a further compound:
**Q:** # lookup: growth of COc1ccc(Nc2[nH]n3c(=O)cc(C)nc3c2C(N)=O)c(OC)c1
**A:** 92.2

---

tested on: MDA-MB-435 melanoma; test: NCI-60 one-dose screen, 48 h (100 = growth as untreated, 0 = no growth, -100 = all killed); details: 10 µM unless noted
This is part of a sample that, as a whole, favours compounds with a hit. Of some 83,000 tested, about 20% had one in any assay.
Returns T if the recorded growth is greater than or equal to 70%, and F otherwise.

MOLECULE	CLASS
COc1ccc(-c2cn(-c3cccc(C(=O)/C=C/c4cc(OC)c(OC)c(OC)c4)c3)c(=O)[nH]2)cc1OC	T
COc1ccc(/C=C2\Oc3cc(OCCCN4CCCC4)ccc3C2=O)cc1	T
COc1ccc(-c2cnoc2-c2ccc(OC)cc2O)cc1	F
CCN(CC)c1ccc(/C=C2\Oc3ccc(O)c(I)c3C2=O)cc1	F
O=C(Nc1cccc(-n2cc(-c3ccncc3)c(-c3ccc(Cl)c(O)c3)n2)c1)c1ccc(N2CCOCC2)c(C(F)(F)F)c1	F
CCN(CC)CCOC(=O)C(c1ccccc1)(c1ccccc1)C(C)C	T
C=C[C@@H]1C[C@@H]2Cc3ccccc3N1O2	T
O=C(Nc1ccncc1)C(=O)c1cn(S(=O)(=O)c2ccccc2F)c2ccccc12	F

**Q:** Hi team, for Cc1ccc(-c2nc(C#N)c(S(=O)(=O)n3nc(-c4ccccc4)cc3N)o2)cc1 , is the recorded growth at or above 70%?
**A:** T

**Q:** Hi team, for C1=Cc2ccccc2N(c2nnc(-c3ccccc3)o2)c2ccccc21 , is the recorded growth at or above 70%?
**A:** T

**Q:** Hi team, for Cc1csc(NC(c2ccc(Br)cc2)c2c(C)nc3ccccn23)n1 (stereo not given) , is the recorded growth at or above 70%?
**A:** T

**Q:** Hi team, for COc1cccc(/C=C2\Oc3cc(OCCCN4CCCC4)ccc3C2=O)c1OC , is the recorded growth at or above 70%?
**A:** T

**Q:** Hi team, for CCOC(=O)NNC(=S)Nc1ccccc1 , is the recorded growth at or above 70%?
**A:** T

**Q:** Hi team, for CCOC(=O)c1c(NS(=O)(=O)c2ccc(C)cc2)sc2c1CCC1(C2)OCCO1 , is the recorded growth at or above 70%?
**A:** T

**Q:** Hi team, for O=C(C1=Cc2cc3ccccc3n2Cc2cnnn21)c1ccccc1 , is the recorded growth at or above 70%?
**A:** F

**Q:** Hi team, for CCCCCCCC/C=C/CCCCCCCC1=NC(C)(C)CN1C(C)(C)CO , is the recorded growth at or above 70%?
**A:** F

**Q:** Hi team, for COc1ccncc1S(=O)(=O)NC(=O)Nc1ccc(Cl)c(Cl)c1 , is the recorded growth at or above 70%?
**A:** T

**Q:** Hi team, for Clc1ccccc1-c1nc2ccccc2[nH]1 , is the recorded growth at or above 70%?
**A:** T

**Q:** Hi team, for CC(C)(C)n1cc(-c2ccnc(NCCCNS(=O)(=O)c3ccc(Cl)cc3)c2)c(-c2cccc(O)c2)n1 , is the recorded growth at or above 70%?
**A:** F

**Q:** Hi team, for CCOC(=O)C1C(=O)C=C(c2ccc(OC)cc2)CC1c1sc(N(C)Cc2ccccc2)nc1Cl (stereo not given) , is the recorded growth at or above 70%?
**A:** T

**Q:** Hi team, for COc1ccc(/C(C#N)=C/c2cc(OC)c(OC)c(OC)c2)cc1 , is the recorded growth at or above 70%?
**A:** F

**Q:** Hi team, for CC1=NC2=CC=CC3=NC(C(Cl)(Cl)Cl)=NC(=N1)N23 , is the recorded growth at or above 70%?
**A:** T
